- test system: T1, human gastric inhibitory peptide receptor (GIPR) (human, UniProt P48546 22-466)
- T1 sequence (looked up): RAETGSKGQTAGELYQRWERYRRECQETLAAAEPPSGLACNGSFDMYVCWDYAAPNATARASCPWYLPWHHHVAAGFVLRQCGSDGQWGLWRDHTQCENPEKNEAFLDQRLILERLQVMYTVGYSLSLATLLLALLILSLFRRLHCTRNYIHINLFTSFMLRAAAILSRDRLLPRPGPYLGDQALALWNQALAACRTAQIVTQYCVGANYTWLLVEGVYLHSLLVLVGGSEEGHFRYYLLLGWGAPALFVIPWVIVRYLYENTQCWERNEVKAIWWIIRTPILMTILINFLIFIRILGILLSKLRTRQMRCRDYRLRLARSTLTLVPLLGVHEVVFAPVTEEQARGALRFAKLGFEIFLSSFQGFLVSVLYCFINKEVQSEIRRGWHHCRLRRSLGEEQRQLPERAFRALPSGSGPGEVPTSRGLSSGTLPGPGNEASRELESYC
- assay info: cell-based or functional assay
hGIPR cAMP EC50 ratio under 0.8 gets Condition met, anything at or over 0.8 gets Condition not met.

binder	qualitative label
YXEGTFTSDYSIXLDKKAQXEFIEXLIAGGPSSGAPPPS (Aib2; αMeL13; K17 conjugated to (2-[2-(2-Amino-ethoxy)-ethoxy]-acetyl)2-(γ-Glu)-CO-(CH2)18-CO2H; Aib20; αMeY25; C-terminal amide (NH2))	Condition not met
XXEGTFTSDYSIXLDXKAQXAFVEYLIEGGPSSGAPPPS (D-Tyr1; Aib2; αMeL13; Orn16; K17 conjugated to (2-[2-(2-Amino-ethoxy)-ethoxy]-acetyl)2-(γ-Glu)-CO-(CH2)18-CO2H; Aib20; C-terminal amide (NH2))	Condition met
XXEGTFTSDYSIXLDXKAQXDFIEYLIAGGPSSGAPPPS (D-Tyr1; Aib2; αMeL13; Orn16; K17 conjugated to (2-[2-(2-Amino-ethoxy)-ethoxy]-acetyl)2-(γ-Glu)-CO-(CH2)18-CO2H; Aib20; C-terminal amide (NH2))	Condition met

--- query ---
Does the reported hGIPR cAMP EC50 ratio of the following binder sit strictly below 0.8? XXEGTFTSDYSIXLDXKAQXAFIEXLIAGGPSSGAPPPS (D-Tyr1; Aib2; αMeL13; Orn16; K17 conjugated to (2-[2-(2-Amino-ethoxy)-ethoxy]-acetyl)2-(γ-Glu)-CO-(CH2)16-CO2H; Aib20; αMeY25; C-terminal amide (NH2))
Condition not met
